Cited source for all entries: patent US6579967B1

Entries and their measured IC50 follow.
Target: human SSTR2 (Homo sapiens)
Construct: expressed in transfected cells; host or cells: CHO-K1 cells and CCL39 cells
Sequence (P30874 whole entry): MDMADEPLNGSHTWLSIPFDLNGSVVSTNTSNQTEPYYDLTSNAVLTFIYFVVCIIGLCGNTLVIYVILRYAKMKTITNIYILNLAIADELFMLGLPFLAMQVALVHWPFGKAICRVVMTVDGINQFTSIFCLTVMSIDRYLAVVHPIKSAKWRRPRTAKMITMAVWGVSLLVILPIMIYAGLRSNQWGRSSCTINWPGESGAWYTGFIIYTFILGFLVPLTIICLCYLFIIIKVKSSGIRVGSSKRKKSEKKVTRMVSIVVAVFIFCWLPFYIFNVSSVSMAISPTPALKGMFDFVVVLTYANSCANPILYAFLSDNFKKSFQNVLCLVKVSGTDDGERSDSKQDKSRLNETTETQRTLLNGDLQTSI
Test: Displacement of 125I-[Leu8,D-Trp22,Tyr25]-somatostatin-28 from cloned SSTR2 (receptor autoradiography on membrane pellets)
Format: binding
Conditions: inhibition of 125I-[Leu8,D-Trp22,Tyr24]SRIF-28 binding, cloned receptor; read-out: IC50 (nM) mSSTR2

Would you please look over these solved cases?
Molecule	IC50
C[C@@H](O)[C@@H]1NC(=O)[C@H](CCCCN)NC(=O)[C@@H](N(C)C(=O)c2ccc3ccccc3c2)NC(=O)[C@H](Cc2ccc(Cl)cc2)NC(=O)[C@H](Cc2ccccc2)NC(=O)[C@H](N)CSSC[C@@H](C(=O)O)NC(=O)[C@H](Cc2ccccc2)NC1=O [Peptide No. 2E]	> 1000 nM
C[C@@H](O)[C@@H]1NC(=O)[C@H](CCCCN)NC(=O)[C@@H](N(C)C(=O)c2ccc3ccccc3c2)NC(=O)[C@H](Cc2ccc(O)cc2)NC(=O)[C@H](Cc2ccccc2)NC(=O)[C@@H](N)CSSC[C@@H](C(=O)O)NC(=O)[C@H](Cc2ccccc2)NC1=O [Peptide No. 2]	> 10000 nM
C[C@@H](O)[C@@H]1NC(=O)[C@H](CCCCN)NC(=O)[C@@H](N(C)C(=O)c2ccc3ccccc3c2)NC(=O)[C@H](Cc2ccccc2)NC(=O)[C@H](Cc2ccccc2)NC(=O)[C@@H](N)CSSC[C@@H](C(=O)O)NC(=O)[C@H](Cc2ccccc2)NC1=O [Peptide No. 2B]	> 10000 nM

Alright, here's another molecule for you.
# get_value(readout='IC50', item= C[C@@H](O)[C@@H]1NC(=O)[C@H](CCCCN)NC(=O)[C@@H](Cc2ccc3ccccc3c2)NC(=O)[C@H](N(C)C(=O)c2ccccc2)NC(=O)[C@H](Cc2ccccc2)NC(=O)[C@@H](N)CSSC[C@@H](C(=O)O)NC(=O)[C@H](Cc2ccccc2)NC1=O [Peptide No. 3] ) > 1000 nM
